Measured values drawn from patent US9790545B2 for this set.

Tested on: 1700011H14Rik
experiment_description: Relative gene expression in neural differentiation culture of murine embryonic stem cells (ES-D3), microarray
condition: exposed from day 3, harvested day 4 (24 h exposure); ratio to reference value; concentration coded in label (L low, H high, Table 3)
outcome_measure: relative expression value 1700011H14Rik

[
  {
    "compound": "CC=O [aceL, Acetaldehyde]",
    "assayed_target": "1700011H14Rik",
    "measured_result": 1.175
  },
  {
    "compound": "NC(=O)N1c2ccccc2C=Cc2ccccc21 [cbzL, Carbamazepine]",
    "assayed_target": "1700011H14Rik",
    "measured_result": 0.870
  },
  {
    "compound": "O=C1NC(=O)C(c2ccccc2)(c2ccccc2)N1 [pheL, Phenytoin]",
    "assayed_target": "1700011H14Rik",
    "measured_result": 1.146
  },
  {
    "compound": "CCCC(CCC)C(=O)O [VpaL, Valproic acid]",
    "assayed_target": "1700011H14Rik",
    "measured_result": 0.962
  }
]

---

System: Hoxb6
experiment_description: Relative gene expression in neural differentiation culture of murine embryonic stem cells (ES-D3), microarray
condition: exposed from day 3, harvested day 4 (24 h exposure); ratio to reference value; concentration coded in label (L low, H high, Table 3)
outcome_measure: relative expression value Hoxb6

[
  {
    "compound": "CC=O",
    "measured_result": 0.917
  },
  {
    "compound": "CCCC(CCC)C(=O)O",
    "measured_result": 0.807
  },
  {
    "compound": "NC(=O)N1c2ccccc2C=Cc2ccccc21 [cbzL, Carbamazepine]",
    "measured_result": 0.991
  },
  {
    "compound": "O=C1NC(=O)C(c2ccccc2)(c2ccccc2)N1",
    "measured_result": 0.839
  }
]
